Data origin, for the record: patent US20200283478A1

TARGET DESC: T1, PCSK9Δhelix (human PCSK9 lacking the P' helix, His-tagged) (human, UniProt Q8NBP7 31-152; Q8NBP7 168-692)
T1 construct: Construct M1-Q692 with an engineered TEV site (Y166 and R167 deleted, ENLYFQS inserted between R165 and A168); also called His-PCSK9Δhelix; C-terminal (His)8-tagged PCSK9Δhelix
T1 sequence (Q8NBP7 31-152, stated change not applied, chain 1 of 2): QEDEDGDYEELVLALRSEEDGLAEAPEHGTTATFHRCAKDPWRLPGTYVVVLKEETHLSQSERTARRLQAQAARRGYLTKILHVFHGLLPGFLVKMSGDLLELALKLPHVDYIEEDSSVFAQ
T1 sequence (Q8NBP7 other isoform, or with tags, fused parts or gaps mutant, chain 2 of 2): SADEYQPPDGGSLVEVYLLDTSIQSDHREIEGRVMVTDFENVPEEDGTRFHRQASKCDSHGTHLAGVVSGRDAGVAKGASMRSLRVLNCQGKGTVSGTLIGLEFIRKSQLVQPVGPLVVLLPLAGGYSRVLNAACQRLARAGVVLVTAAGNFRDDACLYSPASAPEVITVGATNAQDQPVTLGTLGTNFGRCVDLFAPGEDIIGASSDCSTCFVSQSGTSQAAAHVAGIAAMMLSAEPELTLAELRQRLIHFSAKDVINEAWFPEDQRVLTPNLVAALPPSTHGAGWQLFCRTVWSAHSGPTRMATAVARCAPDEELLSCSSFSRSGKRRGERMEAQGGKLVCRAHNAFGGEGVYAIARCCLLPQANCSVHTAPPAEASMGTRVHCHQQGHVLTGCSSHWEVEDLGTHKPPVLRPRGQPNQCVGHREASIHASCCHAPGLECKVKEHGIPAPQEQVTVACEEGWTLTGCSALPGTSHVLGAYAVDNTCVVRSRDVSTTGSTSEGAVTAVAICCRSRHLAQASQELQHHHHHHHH
ASSAY: SPR (Biacore), His-tagged PCSK9Δhelix captured on NTA chip
Square brackets hold non-standard residues; d marks the D form. hArg = N=C(N)NCCCC[C@H](N)C(=O)O
EXPERIMENTAL ENDPOINT: Kd (nM)
Only the number, expressed in nM, is required.

Solved cases (5 shown):
Ac-LMPWNLVRIGLLR-NH2 [Compound 50: Ac-LMPWNLVRIGLLR-NH2]	470
Ac-DLMPWNLVRIGLLR-NH2 [Compound 35: Ac-DLMPWNLVRIGLLR-NH2]	1380
Ac-MPWNLVRIGLLR-NH2 [Compound 51: Ac-MPWNLVRIGLLR-NH2]	1400
Ac-WNLVRIGLLR-NH2 [Compound 53: Ac-WNLVRIGLLR-NH2]	14000
Ac-WNLV[hArg]IGLLR-NH2 [Compound 192: Ac-WNLV(homoR)IGLLR-NH2]	1000

Supply Kd value. Item: Ac-PWNLVRIGLLR-NH2 [Compound 52: Ac-PWNLVRIGLLR-NH2]
2100
